Assignment: determine reported pIC50 for the given compounds.
Biological target: BACE-2 (Homo sapiens, UniProt Q9Y5Z0)
Construct: Recombinant BACE-2 (extracellular domain, expressed in baculovirus and purified using standard methods); made in house
Sequence (Q9Y5Z0 63-473 limits assumed): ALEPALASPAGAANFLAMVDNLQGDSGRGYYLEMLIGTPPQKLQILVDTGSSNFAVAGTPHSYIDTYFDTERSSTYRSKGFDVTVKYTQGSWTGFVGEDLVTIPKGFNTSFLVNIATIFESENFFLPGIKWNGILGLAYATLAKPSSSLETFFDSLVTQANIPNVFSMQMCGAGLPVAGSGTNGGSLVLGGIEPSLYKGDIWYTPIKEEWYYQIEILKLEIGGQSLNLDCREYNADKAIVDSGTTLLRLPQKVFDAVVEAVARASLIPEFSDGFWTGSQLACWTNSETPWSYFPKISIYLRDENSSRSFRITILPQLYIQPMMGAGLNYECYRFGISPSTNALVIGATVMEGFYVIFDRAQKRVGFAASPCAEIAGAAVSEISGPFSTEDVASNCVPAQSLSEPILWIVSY
Assay: assay for inhibition of BACE-2
Type: biochemical
Where a name gives a salt, the structure may show the parent alone.
One number for each entry, as −log10 of the molar value.

Completed entries (count: 3):
>>> readout_number("NC1=N[C@@](c2cc(NC(=O)c3cnc(OCCF)cn3)ccc2F)(C(F)F)COC1 [Example 136]")
5.94
>>> readout_number("NC1=NC(c2cccc(NC(=O)c3ccc(C(F)(F)F)cn3)c2)(C(F)F)COC1 (stereo not shown) [Example 39]")
5.53
>>> readout_number("CN1CC(C)(c2cc(NC(=O)c3ccc(Cl)cn3)ccc2F)N=C(N)C1=O (stereo not shown) [Example 190, hydrochloride]")
7.46

Return reported pIC50 values for all items listed beneath this line.
1. NC1=NC(CF)(c2ccnc(NC(=O)c3ccc(Cl)cn3)c2)COC1 (stereo not shown) [Example 270]
2. NC1=NC(CF)(c2cc(NC(=O)c3ccc(Br)cn3)cnc2Cl)COC1 (stereo not shown) [Example 274, hydrochloride]
3. CC1(c2cccc(NC(=O)c3ncccc3F)c2)COCC(N)=N1 (stereo not shown) [Example 9, hydrochloride]
4. COCc1cc(Cl)cnc1C(=O)Nc1ccc(F)c([C@]2(C(F)F)COCC(N)=N2)c1 [Example 215]
5. CC1(c2cccc(NC(=O)c3ncc(Br)cn3)c2)COCC(N)=N1 (stereo not shown) [Example 7, hydrochloride]
6. CC1(c2cccc(NC(=O)c3ccc(Br)cn3)n2)COCC(N)=N1 (racemic) [Example 258]

# output
1: 5.32; 2: 6.88; 3: 6.18; 4: 7.96; 5: 6.51; 6: 6.44

Please report pIC50 for every entry that follows.
1. NC1=N[C@@](c2cc(NC(=O)c3ncc(Cl)cc3O)ccc2F)(C(F)F)COC1 [Example 169]
2. Cc1c(C(=O)Nc2ccc(F)c([C@]3(C(F)F)COCC(N)=N3)c2)oc2ccc(CN(C)C)cc12 [Example 172, hydrochloride]

# output
1: 8.40; 2: 8.15

Please state pIC50 for every compound in the list that follows.
1. NC1=N[C@@](c2cc(NC(=O)c3ncc(F)cc3F)ccc2F)(C(F)F)COC1 [Example 113]
2. COCCOc1cnc(C(=O)Nc2ccc(F)c([C@]3(C(F)F)COCC(N)=N3)c2)c(C)n1 [Example 178, hydrochloride]

# output
7.54
5.53

---

Please go through the items and note down their log10 of IC50.
Target: BACE-2 (Homo sapiens, UniProt Q9Y5Z0)
Construct: Recombinant BACE-2 (extracellular domain, expressed in baculovirus and purified using standard methods)
Test: assay for inhibition of BACE-2
Where a name gives a salt, the structure may show the parent alone.
Base-10 log of IC50, unit µM.

>>> readout_number("CC(C)N1CC(C)(c2cc(NC(=O)c3ccc(Br)cn3)ccc2F)N=C(N)C1=O (stereo not shown) [Example 194, hydrochloride]")
-1.33

Give me log10 of IC50 for each of these molecules, listed below.
1. Cl.[2H]c1nc(C(=O)Nc2ccc(F)c([C@]3(C(F)F)COCC(N)=N3)c2)c(C([2H])([2H])[2H])c([2H])c1Cl
2. NC1=N[C@@](c2cc(NC(=O)c3cn4ccccc4n3)ccc2F)(C(F)F)COC1
3. N#Cc1ccc(C(=O)Nc2ccc(F)c(C3(C(F)(F)F)CCOCC(N)=N3)c2)nc1 (stereo not shown) [Example 98, hydrochloride]
4. Cc1c(C(=O)Nc2ccc(F)c([C@]3(C(F)F)COCC(N)=N3)c2)oc2ccc(Br)cc12

# output
1. -2.52
2. 0.21
3. -0.84
4. -0.94
